I'd appreciate it if you could supply inhibition values for the items below.
# TEST SYSTEM: Tissue alpha-L-fucosidase (Bos taurus)
# PROTOCOL SUMMARY: Inhibition of bovine kidney alpha-L-fucosidase assessed as release of p-nitrophenol at 1000 uM using p-nitrophenyl glycoside as substrate by spectrometric assay relative to control
Field: numeric (%). Do not append units.

Name the recorded inhibition of the compound listed here: "COc1cccc([C@]2(CO)NC[C@@H](O)[C@@H]2O)c1"
0

Name the recorded inhibition of the compound listed here: "C[C@]1(CO)NC[C@@H](O)[C@@H]1O"
10.9

Name the recorded inhibition of the compound listed here: "OC[C@]1(c2cccc(F)c2)NC[C@H](O)[C@H]1O"
0

Name the recorded inhibition of the compound listed here: "OC[C@]1(c2ccc(F)cc2)NC[C@H](O)[C@H]1O"
0

Name the recorded inhibition of the compound listed here: "OC[C@@]1(c2ccccc2)NC[C@@H](O)[C@@H]1O"
0

Name the recorded inhibition of the compound listed here: "Cc1ccc([C@@]2(CO)NC[C@H](O)[C@H]2O)cc1"
3.3

----------
I'd appreciate it if you could supply inhibition values for the items below.
# Species on record: Rattus norvegicus
# PROTOCOL SUMMARY: Inhibition of rat intestinal alpha-trehalase assessed as release of p-nitrophenol at 1000 uM using p-nitrophenyl glycoside as substrate by spectrometric assay relative to control
Field: numeric (%). Do not append units.

Name the recorded inhibition of the compound listed here: "OC[C@@]1(c2cccc(F)c2)NC[C@@H](O)[C@@H]1O"
0

Name the recorded inhibition of the compound listed here: "OC[C@]1(c2cccc(F)c2)NC[C@H](O)[C@H]1O"
10

Name the recorded inhibition of the compound listed here: "OC[C@]1(c2ccc(F)cc2)NC[C@H](O)[C@H]1O"
27

Name the recorded inhibition of the compound listed here: "OC[C@@]1(c2c(F)c(F)c(F)c(F)c2F)NC[C@@H](O)[C@@H]1O"
14.1

Name the recorded inhibition of the compound listed here: "Cc1ccc([C@@]2(CO)NC[C@H](O)[C@H]2O)cc1"
12.9

Name the recorded inhibition of the compound listed here: "OC[C@]1(c2c(F)c(F)c(F)c(F)c2F)NC[C@H](O)[C@H]1O"
40.2

Name the recorded inhibition of the compound listed here: "OC[C@@]1(c2ccc(O)cc2)NC[C@@H](O)[C@@H]1O"
0

Name the recorded inhibition of the compound listed here: "OC[C@@]1(c2ccc(F)cc2)NC[C@@H](O)[C@@H]1O"
25.8

Name the recorded inhibition of the compound listed here: "COc1cccc([C@@]2(CO)NC[C@H](O)[C@H]2O)c1"
0.6

Name the recorded inhibition of the compound listed here: "COc1ccc([C@]2(CO)NC[C@@H](O)[C@@H]2O)cc1OC"
0

Name the recorded inhibition of the compound listed here: "COc1ccc([C@@]2(CO)NC[C@H](O)[C@H]2O)cc1OC"
0

Name the recorded inhibition of the compound listed here: "COc1cccc([C@]2(CO)NC[C@@H](O)[C@@H]2O)c1"
0

Name the recorded inhibition of the compound listed here: "Cc1ccc([C@]2(CO)NC[C@@H](O)[C@@H]2O)cc1"
12.9

Name the recorded inhibition of the compound listed here: "OC[C@]1(c2ccc(O)cc2)NC[C@H](O)[C@H]1O"
1.2

----------
# PROTOCOL SUMMARY: Inhibition of Aspergillus niger amyloglucosidase assessed as release of p-nitrophenol using p-nitrophenyl glycoside as substrate by spectrometric assay
RECORDED METRIC: IC50 (µM)
Field: numeric (µM). Do not append units.

Name the recorded IC50 of the molecule listed here: "OC[C@H]1NC[C@@H](O)[C@@H]1O"
362
